Record form. Attribute: activation at 16 µM. Fill in for each entry.
- Measured Target: Nrf2-Keap1 complex (Homo sapiens)
- Sequence (Q14145 whole entry, one chain of several): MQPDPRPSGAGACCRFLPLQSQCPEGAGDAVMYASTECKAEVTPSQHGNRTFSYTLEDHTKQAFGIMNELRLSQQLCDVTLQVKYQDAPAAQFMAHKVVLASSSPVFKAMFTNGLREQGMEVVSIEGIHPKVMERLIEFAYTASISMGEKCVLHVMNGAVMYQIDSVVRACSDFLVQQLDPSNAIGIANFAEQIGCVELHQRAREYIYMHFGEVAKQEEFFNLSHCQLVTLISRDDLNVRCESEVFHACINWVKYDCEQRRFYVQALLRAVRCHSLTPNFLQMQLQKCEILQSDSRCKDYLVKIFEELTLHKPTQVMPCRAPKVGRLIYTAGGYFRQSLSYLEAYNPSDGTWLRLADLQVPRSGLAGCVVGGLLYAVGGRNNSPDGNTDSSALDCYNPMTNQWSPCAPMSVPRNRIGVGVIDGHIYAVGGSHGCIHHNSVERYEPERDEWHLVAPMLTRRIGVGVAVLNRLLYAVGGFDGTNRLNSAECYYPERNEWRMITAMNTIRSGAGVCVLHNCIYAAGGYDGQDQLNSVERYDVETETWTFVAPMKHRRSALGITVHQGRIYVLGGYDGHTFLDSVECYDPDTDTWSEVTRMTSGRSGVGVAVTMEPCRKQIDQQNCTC
- Measurement Notes: cell-based
- Type: cell-based
- Run Conditions: 3 h, read-out: Activation 100 nL
Structures can show the parent of a compound that is named as a salt.
Give bare numbers, in %.

Consider the reported activation at 16 µM for these molecules:
Molecule: CC(C)=CCC[C@@H](C)[C@@H]1CC[C@]2(C)C3=C(CC[C@@]12C)[C@@]1(C)CC[C@H](O)C(C)(C)[C@@H]1CC3
Measured Target: Nrf2-Keap1 complex (Homo sapiens)
Value Type: activation at 16 µM
Number: 138
//
Molecule: NCCCCNCCCN [SPERMIDINETRIHYDROCHLORIDE]
Measured Target: Nrf2-Keap1 complex (Homo sapiens)
Value Type: activation at 16 µM
Number: 72
//
Molecule: COc1ccc2c(c1)OC/C(=C/c1ccc(OC)c(OC)c1)C2=O
Measured Target: Nrf2-Keap1 complex (Homo sapiens)
Value Type: activation at 16 µM
Number: 246
//
Molecule: COC(=O)/C=C/C(C)=C\C=C\C(C)=C\C=C\C=C(C)\C=C\C=C(C)\C=C\C(=O)O
Measured Target: Nrf2-Keap1 complex (Homo sapiens)
Value Type: activation at 16 µM
Number: 113
//
Molecule: CCCCCCCCCCCCCC(=O)O[C@@H]1[C@@H](C)[C@@]2(O)[C@@H](C=C(CO)C[C@]3(O)C(=O)C(C)=C[C@@H]23)[C@@H]2C(C)(C)[C@]12OC(C)=O [PHORBOLMYRISTATEACETATE, reference compound]
Measured Target: Nrf2-Keap1 complex (Homo sapiens)
Value Type: activation at 16 µM
Number: 47

Go through the list and state activation at 16 µM for each entry.
1. O=C1CC(c2ccc(O)cc2)Oc2ccccc21 (stereo not drawn) [4′-HYDROXYFLAVANONE]
2. Nc1ncnc2c1ncn2[C@H]1C[C@H](O)[C@@H](CO)O1
3. O=C1C=CC(=O)c2c(O)cccc21

[158, 32, 58]
